Every entry's value here was drawn from patent US11814435B2.

Listing of entries alongside the reported kd (1/s) huBCMA @37° C..
Molecular target: T1, hBCMA (human BCMA) (Homo sapiens, UniProt Q02223)
T1 sequence (Q02223 1-184): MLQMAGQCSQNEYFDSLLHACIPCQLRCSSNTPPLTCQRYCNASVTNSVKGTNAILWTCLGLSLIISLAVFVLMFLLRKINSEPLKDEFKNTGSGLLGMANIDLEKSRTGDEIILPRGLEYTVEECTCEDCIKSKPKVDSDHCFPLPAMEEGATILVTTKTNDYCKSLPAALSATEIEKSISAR
Experiment: Kinetics and affinity of hBCMA/human IgG interactions by SPR (Bio-Rad Proteon XPR36)
Type: binding
Settings: huBCMA, 37° C.

Worked examples, 2 molecules total:
L3.PY/L3.KY/H3.YA: anti-BCMA antibody (antibody, V domains shown) VH: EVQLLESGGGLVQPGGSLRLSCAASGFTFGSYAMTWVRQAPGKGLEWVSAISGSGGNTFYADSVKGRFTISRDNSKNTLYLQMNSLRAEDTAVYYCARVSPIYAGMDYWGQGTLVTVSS VL: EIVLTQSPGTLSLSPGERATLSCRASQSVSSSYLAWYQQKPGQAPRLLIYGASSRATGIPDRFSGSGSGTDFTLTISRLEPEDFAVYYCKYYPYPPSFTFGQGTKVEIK = 0.000912 s⁻¹
L3.PY/H2.QR: anti-BCMA antibody (antibody, V domains shown) VH: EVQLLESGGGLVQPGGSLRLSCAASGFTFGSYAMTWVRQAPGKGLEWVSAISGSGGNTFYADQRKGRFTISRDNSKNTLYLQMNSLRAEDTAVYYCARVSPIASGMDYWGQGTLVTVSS VL: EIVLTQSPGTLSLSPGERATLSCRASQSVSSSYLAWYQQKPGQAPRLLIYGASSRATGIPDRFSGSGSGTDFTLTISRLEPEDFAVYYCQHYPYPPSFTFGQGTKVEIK = 0.00119 s⁻¹

Would you mind telling me what kd (1/s) huBCMA @37° C. value was observed for L3.PY/L3.KY/H2.DY: anti-BCMA antibody (antibody, V domains shown) VH: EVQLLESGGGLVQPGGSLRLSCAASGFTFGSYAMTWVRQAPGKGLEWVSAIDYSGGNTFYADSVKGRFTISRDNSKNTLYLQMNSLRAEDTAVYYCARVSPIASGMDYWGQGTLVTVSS VL: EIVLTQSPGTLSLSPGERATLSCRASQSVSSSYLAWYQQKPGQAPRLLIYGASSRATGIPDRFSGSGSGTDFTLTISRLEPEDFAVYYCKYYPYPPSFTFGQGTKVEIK ?
0.000642 s⁻¹

Then L3.PY/L3.KF/H2.YQ: anti-BCMA antibody (antibody, V domains shown) VH: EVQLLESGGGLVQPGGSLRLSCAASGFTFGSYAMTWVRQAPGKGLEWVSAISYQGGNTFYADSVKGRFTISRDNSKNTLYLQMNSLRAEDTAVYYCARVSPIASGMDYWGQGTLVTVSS VL: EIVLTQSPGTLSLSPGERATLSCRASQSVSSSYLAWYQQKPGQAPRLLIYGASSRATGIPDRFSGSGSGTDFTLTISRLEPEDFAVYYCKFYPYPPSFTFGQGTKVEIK ?
0.00223 s⁻¹

Same question, L3.PY/L1.PS/H2.YQ: anti-BCMA antibody (antibody, V domains shown) VH: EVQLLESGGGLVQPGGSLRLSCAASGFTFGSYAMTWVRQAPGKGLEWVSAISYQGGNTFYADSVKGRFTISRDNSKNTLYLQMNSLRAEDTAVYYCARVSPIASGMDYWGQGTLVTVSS VL: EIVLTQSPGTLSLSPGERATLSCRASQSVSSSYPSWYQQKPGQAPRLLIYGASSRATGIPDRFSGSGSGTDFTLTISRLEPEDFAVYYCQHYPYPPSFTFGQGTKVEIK this time
0.0043 s⁻¹
